study_system: IDH1 R132H (Homo sapiens, UniProt O75874, R132H)
Sequence (O75874 whole entry R132H): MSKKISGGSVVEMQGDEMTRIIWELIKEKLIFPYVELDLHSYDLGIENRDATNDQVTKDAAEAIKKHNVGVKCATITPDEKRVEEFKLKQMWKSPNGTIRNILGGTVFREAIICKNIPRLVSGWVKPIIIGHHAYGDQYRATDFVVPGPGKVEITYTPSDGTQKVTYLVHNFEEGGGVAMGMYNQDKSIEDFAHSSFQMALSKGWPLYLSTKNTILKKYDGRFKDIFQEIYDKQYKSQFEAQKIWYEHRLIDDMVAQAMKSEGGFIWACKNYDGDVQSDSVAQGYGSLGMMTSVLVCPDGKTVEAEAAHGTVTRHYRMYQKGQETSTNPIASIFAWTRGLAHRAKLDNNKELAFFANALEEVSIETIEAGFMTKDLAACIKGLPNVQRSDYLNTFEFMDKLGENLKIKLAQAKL
protocol_description: IDH1 R132H enzymatic assay (NADPH depletion coupled to diaphorase/resazurin)
Type: biochemical
test_settings: IDH1 R132H enzymatic inhibition, IC50 class
pIC50: −log10 of the molar value.
We begin with a simple list: items and their reported pIC50.
test_readout: pIC50

smiles_text	test_readout	result
CCc1cccc(CC)c1-n1c(CC(C)C)c(C(=O)NC[C@@H](C)O)cc(-c2nc(-c3ccc(Cl)cc3)cs2)c1=O	pIC50	6.00 to 6.52
CCc1cccc(CC)c1-n1c(C=C(C)C)c(C(=O)N2CCNCC2)cc(-c2nc(-c3ccc(C4CC4)cc3)cs2)c1=O	pIC50	> 6.52
CCc1cccc(CC)c1-n1c(CC(C)C)c(C(=O)N2CCNCC2)cc(-c2nc(-c3ccc(OCc4ccccc4)cc3)c(C)s2)c1=O	pIC50	4.70 to 5.30
